# testSystem: GdauOBP10 (Galeruca daurica, UniProt A0A1U9W4Z5)
# Sequence (A0A1U9W4Z5 entry or part of it): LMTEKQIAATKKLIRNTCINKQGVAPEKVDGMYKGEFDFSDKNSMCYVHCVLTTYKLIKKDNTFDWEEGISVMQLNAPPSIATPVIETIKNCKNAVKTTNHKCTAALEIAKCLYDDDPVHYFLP
# test: Fluorescence competitive binding assay (1-NPN reporter), recombinant GdauOBP10
# experimentalContext: GdauOBP10; Ki = IC50/(1 + [1-NPN]/K1-NPN)
pKi: −log10 of the molar value.
readoutType: pKi

molecule	pKi
C=CCSCC=C [Diallyl sulfide]	4.22
CSSC [Dimethyl disulfide]	4.32
CSSSC [Dimethyl trisulfide]	4.28
C1=CC=CCC=C1 [1,3,5-cycloheptatriene, 1,3,5-Cycloheptatriene]	4.33

###

# testSystem: GdauOBP10 (Galeruca daurica)
# test: Fluorescence competitive binding assay (1-NPN reporter), recombinant GdauOBP10
molecules and their reported pIC50
The scale used: pIC50 is minus the common logarithm of the concentration in molar units.

Worked examples, 3 molecules total:
molecule	pIC50
Cc1ccc(C)cc1	4.24
CCC/C=C\CO [(Z)-2-hexen-1-ol, (Z)-2-Hexen-1-ol]	4.02
COC(=O)c1ccccc1 [Methyl benzoate]	4.13

// pIC50 value for CCCCCC=O : 4.28

// pIC50 value for C1CSCSC1 : 4.23

// pIC50 value for CCCC=CC=O : 4.07

###

# testSystem: UniProt A0A1U9W4Z9
# test: Fluorescence competitive binding assay (1-NPN reporter), recombinant GdauOBP15
readoutType: Kd (µM)
Output spec: scalar in µM, unitless text.

// Kd value for c1ccc(Nc2cccc3ccccc23)cc1 [1-NPN, N-phenyl-1-naphthylamine, reference compound] : 14.6

###

# testSystem: GdauOBP15 (Galeruca daurica)
# Sequence (A0A1U9W4Z9 entry or part of it): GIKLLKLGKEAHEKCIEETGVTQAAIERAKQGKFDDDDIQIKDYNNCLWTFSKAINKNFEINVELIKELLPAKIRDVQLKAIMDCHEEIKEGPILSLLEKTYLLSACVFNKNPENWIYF
# test: Fluorescence competitive binding assay (1-NPN reporter), recombinant GdauOBP15
# experimentalContext: GdauOBP15; Ki = IC50/(1 + [1-NPN]/K1-NPN)
pKi: −log10 of the molar value.
readoutType: pKi

compound	testSystem	measured
C=CCSCC=C [Diallyl sulfide]	GdauOBP15 (Galeruca daurica)	4.37
C1=CC=CCC=C1	GdauOBP15 (Galeruca daurica)	4.34
CSSSC [Dimethyl trisulfide]	GdauOBP15 (Galeruca daurica)	4.30
CSSC [Dimethyl disulfide]	GdauOBP15 (Galeruca daurica)	4.64

###

# testSystem: UniProt A0A1U9W4Z9
# test: Fluorescence competitive binding assay (1-NPN reporter), recombinant GdauOBP15
# experimentalContext: GdauOBP15; 2 μM protein, 1-NPN saturated, 50 mM Tris–HCl pH 7.4; read-out: IC50
pIC50: −log10 of the molar value.
readoutType: pIC50

molecule	measured
C1=CC=CCC=C1 [1,3,5-cycloheptatriene, 1,3,5-Cycloheptatriene]	4.29
C=CCSCC=C [Diallyl sulfide]	4.32
CSSC [Dimethyl disulfide]	4.58
CSSSC [Dimethyl trisulfide]	4.25

###

# testSystem: GdauOBP6 (Galeruca daurica, UniProt A0A1U9W4Z8)
# Sequence (A0A1U9W4Z8 entry or part of it): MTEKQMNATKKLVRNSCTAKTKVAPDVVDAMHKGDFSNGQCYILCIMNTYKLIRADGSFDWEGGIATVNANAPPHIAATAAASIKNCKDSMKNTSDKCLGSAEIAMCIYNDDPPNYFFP
# test: Fluorescence competitive binding assay (1-NPN reporter), recombinant GdauOBP6
readoutType: pIC50
The scale used: pIC50 is minus the common logarithm of the concentration in molar units.

Worked examples, 2 compounds total:
compound	measured
CCCC=CC=O	4.47
C1CSCSC1	4.44

// pIC50 value for C=CCSSCC=C [Diallyl disulfide] : 4.14

// pIC50 value for CCC/C=C\CO [(Z)-2-hexen-1-ol, (Z)-2-Hexen-1-ol] : 4.48

// pIC50 value for COC(=O)c1ccccc1 [Methyl benzoate] : 4.44

// pIC50 value for CCCCCC=O : 4.49

// pIC50 value for Cc1ccc(C)cc1 : 4.14

###

# testSystem: UniProt:A0A1W6GWH8
# test: Fluorescence competitive binding assay (1-NPN reporter), recombinant GdauCSP5
# experimentalContext: GdauCSP5; Ki = IC50/(1 + [1-NPN]/K1-NPN)
readoutType: Ki (µM)

Worked examples, 3 compounds total:
compound	testSystem	unitAnnotation	measured
CSSC [Dimethyl disulfide]	UniProt:A0A1W6GWH8	µM	26.5
CSSSC [Dimethyl trisulfide]	UniProt:A0A1W6GWH8	µM	39.5
C=CCSCC=C [Diallyl sulfide]	UniProt:A0A1W6GWH8	µM	53.1

I. C=CC(=C)CCC=C(C)C
II. C1=CC=CCC=C1
Request: Between item I and item II , which reported Ki is smaller? Could you answer with the label of the item you picked?
Result: II

###

# testSystem: GdauCSP4 (Galeruca daurica)
# test: Fluorescence competitive binding assay (1-NPN reporter), recombinant GdauCSP4
# experimentalContext: GdauCSP4; 2 μM protein, 1-NPN saturated, 50 mM Tris–HCl pH 7.4; read-out: IC50
readoutType: IC50 (µM)

compound	measured
C1=CC=CCC=C1	23.4
CSSC [Dimethyl disulfide]	23.1

A. C=CCSCC=C [Diallyl sulfide]
B. CSSSC [Dimethyl trisulfide]
Request: Between item A and item B , which reported IC50 is smaller? Could you answer with the label of the item you picked?
Result: B

###

# testSystem: GdauOBP6 (Galeruca daurica)
# test: Fluorescence competitive binding assay (1-NPN reporter), recombinant GdauOBP6
# experimentalContext: GdauOBP6; Ki = IC50/(1 + [1-NPN]/K1-NPN)
readoutType: Ki (µM)

Worked examples, 3 compounds total:
compound	readoutType	unitAnnotation	measured
CSSC [Dimethyl disulfide]	Ki	µM	25.7
CSSSC [Dimethyl trisulfide]	Ki	µM	38.2
C=CC(=C)CCC=C(C)C	Ki	µM	59

I. C=CCSCC=C [Diallyl sulfide]
II. C1=CC=CCC=C1
Request: Please tell me which of the two, I or II , has the higher reported Ki value. Could you answer with the label of the item you picked?
Result: II
(II: 69.2 µM, I: 47.3 µM)

###

# testSystem: GdauOBP1 (Galeruca daurica)
# Sequence (A0A1U9W4Y5 entry or part of it): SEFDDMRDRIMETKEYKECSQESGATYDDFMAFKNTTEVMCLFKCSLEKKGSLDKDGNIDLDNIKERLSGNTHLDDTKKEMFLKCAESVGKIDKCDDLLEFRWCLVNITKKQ
# test: Fluorescence competitive binding assay (1-NPN reporter), recombinant GdauOBP1
# experimentalContext: GdauOBP1; Ki = IC50/(1 + [1-NPN]/K1-NPN)
readoutType: Ki (µM)

molecule	unitAnnotation	Ki
CSSC [Dimethyl disulfide]	µM	55.4
C1=CC=CCC=C1	µM	53.8
CSSSC [Dimethyl trisulfide]	µM	54
C=CC(=C)CCC=C(C)C	µM	70.6

###

molecules and their reported pIC50
# testSystem: GdauCSP4 (Galeruca daurica, UniProt A0A1W6GWH1)
# Sequence (A0A1W6GWH1 entry or part of it): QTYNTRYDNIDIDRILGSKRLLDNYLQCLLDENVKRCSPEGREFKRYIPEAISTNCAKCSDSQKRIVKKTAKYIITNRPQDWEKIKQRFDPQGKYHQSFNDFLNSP
# test: Fluorescence competitive binding assay (1-NPN reporter), recombinant GdauCSP4
The scale used: pIC50 is minus the common logarithm of the concentration in molar units.

molecule	testSystem	pIC50
Cc1ccc(C)cc1	GdauCSP4 (Galeruca daurica, UniProt A0A1W6GWH1)	4.70
CCCC=CC=O	GdauCSP4 (Galeruca daurica, UniProt A0A1W6GWH1)	4.76
CCC/C=C\CO [(Z)-2-hexen-1-ol, (Z)-2-Hexen-1-ol]	GdauCSP4 (Galeruca daurica, UniProt A0A1W6GWH1)	4.30

// pIC50 value for C=CCSSCC=C [Diallyl disulfide] : 4.63

// pIC50 value for C1CSCSC1 : 4.73

// pIC50 value for CCCCCC=O : 4.81

// pIC50 value for COC(=O)c1ccccc1 [Methyl benzoate] : 4.88

###

compounds and their reported IC50
# testSystem: GdauCSP5 (Galeruca daurica, UniProt A0A1W6GWH8)
# Sequence (A0A1W6GWH8 entry or part of it): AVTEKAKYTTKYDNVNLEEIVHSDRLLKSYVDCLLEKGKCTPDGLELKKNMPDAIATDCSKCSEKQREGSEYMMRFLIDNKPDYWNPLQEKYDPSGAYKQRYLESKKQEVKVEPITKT
# test: Fluorescence competitive binding assay (1-NPN reporter), recombinant GdauCSP5
Output spec: scalar in µM, unitless text.

Worked examples, 5 compounds total:
compound	IC50 (µM)
C1CSCSC1	50
COC(=O)c1ccccc1 [Methyl benzoate]	44.3
CCCCCC=O	61.4
Cc1ccc(C)cc1	55.7
C=CCSSCC=C [Diallyl disulfide]	61.6

// IC50 value for CCCC=CC=O : 34.4

###

# testSystem: GdauCSP5 (Galeruca daurica)
# test: Fluorescence competitive binding assay (1-NPN reporter), recombinant GdauCSP5
# experimentalContext: GdauCSP5; 2 μM protein, 1-NPN saturated, 50 mM Tris–HCl pH 7.4; read-out: IC50
pIC50: −log10 of the molar value.
readoutType: pIC50

compound	pIC50
C=CCSCC=C [Diallyl sulfide]	4.14
C=CC(=C)CCC=C(C)C	4.07
CSSC [Dimethyl disulfide]	4.44
C1=CC=CCC=C1	4.34
CSSSC [Dimethyl trisulfide]	4.27

###

# testSystem: UniProt A0A1U9W4Y5
# test: Fluorescence competitive binding assay (1-NPN reporter), recombinant GdauOBP1
readoutType: pIC50
The scale used: pIC50 is minus the common logarithm of the concentration in molar units.

Worked examples, 4 molecules total:
molecule	measured
C=CCSSCC=C [Diallyl disulfide]	4.01
Cc1ccc(C)cc1 [p-xylene, p-Xylene]	4.07
CCCCCC=O [Hexanal]	4.15
CCC/C=C\CO [(Z)-2-hexen-1-ol, (Z)-2-Hexen-1-ol]	4.06

// pIC50 value for COC(=O)c1ccccc1 [Methyl benzoate] : 4.18

// pIC50 value for CCCC=CC=O [2-hexenal, 2-Hexenal] : 4.02

// pIC50 value for C1CSCSC1 [1,3-dithiane] : 4.15

###

# testSystem: GdauOBP6 (Galeruca daurica, UniProt A0A1U9W4Z8)
# test: Fluorescence competitive binding assay (1-NPN reporter), recombinant GdauOBP6
# experimentalContext: GdauOBP6; 2 μM protein, 1-NPN saturated, 50 mM Tris–HCl pH 7.4; read-out: IC50
pIC50: −log10 of the molar value.
readoutType: pIC50

compound	measured
C1=CC=CCC=C1 [1,3,5-cycloheptatriene, 1,3,5-Cycloheptatriene]	4.09
CSSSC [Dimethyl trisulfide]	4.35
C=CCSCC=C [Diallyl sulfide]	4.26
CSSC [Dimethyl disulfide]	4.53
C=CC(=C)CCC=C(C)C [Myrcene]	4.16
